Tested on: Cholesterol Biosynthesis Genes in the Mouse Liver
Assay: Microarray expression of cholesterol biosynthesis genes in mouse liver
Format: in vivo
Conditions: 10 mg/kg oral, 8 h
Simple rule here: 3-hydroxy-3-methylglutaryl-Coenzyme A synthase 1 (Hmgcs1) RNA expression less than 0.9 fold-change is T, otherwise F.

Study these solved cases before continuing.
Cc1cccc(C)c1Oc1ccc2c(O)c(C(=O)NCC(=O)O)nc(C#N)c2c1
T
COc1ccc(Cn2c(Cl)c(Cl)c3c(O)c(C(=O)NCC(=O)O)nc(C#N)c32)cc1
F
COc1ccc(Cn2cc(Br)c3c(O)c(C(=O)NCC(=O)O)nc(C#N)c32)cc1
T

Consider now this further molecule.
Given `N#Cc1nc(C(=O)NCC(=O)O)c(O)c2ccn(Cc3ccccc3F)c12` , is recorded 3-hydroxy-3-methylglutaryl-Coenzyme A synthase 1 (Hmgcs1) RNA expression strictly lower than 0.9 fold-change?
T
